pIC50: −log10 of the molar value.
Entries with reported pIC50 on c-Kit kinase (Homo sapiens, UniProt P10721)
Sequence (P10721 26-976): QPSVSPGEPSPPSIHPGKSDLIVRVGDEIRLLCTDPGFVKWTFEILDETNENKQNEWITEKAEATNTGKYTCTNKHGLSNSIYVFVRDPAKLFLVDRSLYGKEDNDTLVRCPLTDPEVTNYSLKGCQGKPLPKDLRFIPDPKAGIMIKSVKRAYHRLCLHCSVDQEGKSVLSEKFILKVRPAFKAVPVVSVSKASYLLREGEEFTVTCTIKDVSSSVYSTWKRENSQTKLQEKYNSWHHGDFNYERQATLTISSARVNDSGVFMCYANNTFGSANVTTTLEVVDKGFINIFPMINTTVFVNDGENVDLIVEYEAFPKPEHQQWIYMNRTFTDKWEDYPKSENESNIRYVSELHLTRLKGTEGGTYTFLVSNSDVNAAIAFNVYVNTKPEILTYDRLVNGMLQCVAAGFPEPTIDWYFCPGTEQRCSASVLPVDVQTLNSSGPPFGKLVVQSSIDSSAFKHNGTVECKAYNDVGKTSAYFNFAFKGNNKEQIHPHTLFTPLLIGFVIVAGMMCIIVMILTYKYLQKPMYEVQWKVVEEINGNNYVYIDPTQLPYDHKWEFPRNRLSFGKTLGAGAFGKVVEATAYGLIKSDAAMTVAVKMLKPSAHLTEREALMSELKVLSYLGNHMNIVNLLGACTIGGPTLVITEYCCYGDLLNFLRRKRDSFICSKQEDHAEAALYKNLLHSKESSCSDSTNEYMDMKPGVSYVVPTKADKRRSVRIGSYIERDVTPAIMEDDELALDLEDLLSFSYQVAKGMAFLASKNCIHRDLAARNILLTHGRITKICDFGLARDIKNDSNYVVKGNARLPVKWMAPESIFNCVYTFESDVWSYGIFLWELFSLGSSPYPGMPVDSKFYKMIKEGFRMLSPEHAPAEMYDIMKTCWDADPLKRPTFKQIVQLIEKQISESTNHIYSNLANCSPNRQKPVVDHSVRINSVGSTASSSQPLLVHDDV

// known answers, use as guide
Lab note: measured pIC50 of CCOc1ncnc2[nH]cc(Cc3ccc(Nc4ccc(Br)nc4)nc3F)c12 was > 7.00

For Cc1cnc2[nH]cc(Cc3ccc(NC4CCCCC4)nc3F)c2c1 the molecule record lists pIC50 as > 6.00

The recorded pIC50 for entry CC(C)Nc1ncnc2[nH]cc(C(=O)c3ccc(NC4CCCCC4)nc3F)c12 equals > 6.00

Moving on to the next molecule.
pIC50 in this record for CCOc1ncnc2[nH]cc(Cc3ccc(Nc4ccc(OC)nc4)nc3F)c12 : > 7.00
